Assayed System: T1, cynomolgus ILT7 (cynomolgus, UniProt P59901 24-499 (human entry))
T1 construct: also called cyno ILT7; cynomolgus monkey ILT7
T1 sequence (P59901 other isoform, or with tags, fused parts or gaps limits assumed): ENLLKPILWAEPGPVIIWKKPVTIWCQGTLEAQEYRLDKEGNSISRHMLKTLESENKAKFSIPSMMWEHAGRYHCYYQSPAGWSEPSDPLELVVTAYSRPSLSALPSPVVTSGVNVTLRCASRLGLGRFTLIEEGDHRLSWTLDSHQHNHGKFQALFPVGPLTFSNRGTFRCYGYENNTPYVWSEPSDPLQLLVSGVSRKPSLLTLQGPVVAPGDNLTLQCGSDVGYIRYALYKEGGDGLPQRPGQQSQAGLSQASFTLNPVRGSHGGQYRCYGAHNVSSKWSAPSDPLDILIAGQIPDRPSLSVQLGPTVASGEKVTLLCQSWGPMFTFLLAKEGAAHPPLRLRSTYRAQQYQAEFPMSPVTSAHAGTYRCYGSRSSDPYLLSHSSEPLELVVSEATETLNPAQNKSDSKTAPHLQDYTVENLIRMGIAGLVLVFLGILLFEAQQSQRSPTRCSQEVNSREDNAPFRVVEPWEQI
Assay Method Text: flow cytometry on CynoILT7 CT-125 cells
Value Kind: EC50

Request: GET /values?readout=EC50&item= ILT70080 (antibody, V domains shown, also called ITL70080) VH: QVQLVQSGAEVKAPGTSVKVSCKASGDSFRNYAVSWVRQAPGQGLEWMGAMMPSFGTREHSQQFNGRVTLSADESTSTAYLELSSLRYDDTAVYYCAGSRDYNAYHFWTGPPDFWGRGTLVTVSS VL: SYELTQPPSVSVAPGKTAKISCGGDSVGSTSVHWYQQKPGQAPVMVMFYNSDRPSGIPERFSGSISGNTATLTISRVEAGDEADYYCQVWDTSSDHPEFGGGTKLTVL
Response: 0.44 nM
